# assay_system: Env of HIV-1 strain REJO4541.67 (HIV-1)
# test_summary: cell-based or functional assay
measured_quantity: neutralization IC50 (µg/mL)
Number only, in µg/mL; omit the unit.

binder	endpoint_result
γ3κ3 (antibody, V domains shown) VH: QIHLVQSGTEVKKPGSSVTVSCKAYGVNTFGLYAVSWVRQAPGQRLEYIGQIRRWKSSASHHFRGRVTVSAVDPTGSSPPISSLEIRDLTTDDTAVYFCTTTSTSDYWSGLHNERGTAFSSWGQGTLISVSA VL: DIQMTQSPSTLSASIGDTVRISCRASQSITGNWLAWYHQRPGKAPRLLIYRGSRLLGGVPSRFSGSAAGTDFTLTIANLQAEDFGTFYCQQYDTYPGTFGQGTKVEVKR	0.26

Note: attention shifts to another entry.
Inquiry: If you can, please state the reported neutralization IC50 value of γ46κ5 (antibody, V domains shown) VH: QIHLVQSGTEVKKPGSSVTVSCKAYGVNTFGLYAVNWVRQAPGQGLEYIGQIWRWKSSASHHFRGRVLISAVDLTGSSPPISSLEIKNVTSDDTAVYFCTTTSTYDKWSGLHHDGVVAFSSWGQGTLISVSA VL: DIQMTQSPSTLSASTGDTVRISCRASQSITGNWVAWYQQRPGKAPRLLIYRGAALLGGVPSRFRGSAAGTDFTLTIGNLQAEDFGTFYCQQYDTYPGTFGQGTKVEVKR .
Reply text: 0.196

Each recorded value in this set is attributed to patent US20180171001A1.
